Assay: A549 cell viability effects, profiling panel, calcein-AM fluorescence, 48 h, basal (AID 1162); note: test concentration not given here
Conditions: higher = more signal
# z-score >= -0.4 gives TRUE, anything below gives FALSE

* COC(=O)[C@@]1(Cc2ccc(F)cc2)[C@H]2c3cc(C(=O)N4CCCC4)n(C[C@H](O)CO)c3C[C@H]2CN1C(=O)c1ccccc1 | FALSE
* C=CCOC(=O)[C@H]1[C@@H]2C(=O)O[C@@H](c3ccccc3)[C@@H](c3ccccc3)N2[C@@H](c2ccc(OCCOC(=O)[C@@H]3C[C@@H]4C(=O)N[C@@H](Cc5ccccc5)C(=O)N4[C@@H]3c3ccc(O)cc3)cc2)[C@]12C(=O)Nc1ccc(I)cc12 | FALSE
* COCCCNC(=O)[C@]1(Cc2ccccc2CN=[N+]=[N-])N=C(c2ccc(OCCCO)cc2)O[C@@H]1c1ccccc1N=[N+]=[N-] | FALSE
* C=CCNC(=O)[C@H]1[C@@H]2C(=O)O[C@@H](c3ccccc3)[C@@H](c3ccccc3)N2[C@@H](c2ccc(OCCO)cc2)[C@]12C(=O)N(C(=O)OCCOC)c1ccc(C#CCC(C(=O)OC)C(=O)OC)cc12 | TRUE
* Cc1ccc(S[C@]2(C(=O)NCC(C)C)CC(=O)N(C(C)C)[C@@H]2c2ccc(CO)cc2I)cc1 | TRUE

q: Tell me whether z-score is at least -0.4 here: C=C(COC)C(=O)CC[C@H](OC(C)=O)c1ccc(CO)o1
a: TRUE

q: Please indicate if the recorded z-score for C#CCN(C(=O)OC(C)(C)C)[C@H](CO)c1ccccc1 meets or exceeds -0.4.
a: FALSE
